Measured melting point, listed per entry.
Structures can show the parent of a compound that is named as a salt.

Study these solved cases before continuing.
Fc1ccc2c(c1)nc(C(F)(F)F)c1nc(-c3ccco3)n(CCC3CCNCC3)c12 (as salt: trifluoroacetate) (hydrate or solvate) = 239 to 241 °C (dec.)
Cc1cccc2c1nc(C(F)(F)F)c1nc(-c3cccs3)n(CCC3CCNCC3)c12 (as salt: trifluoroacetate) (hydrate or solvate) [Example 98] = 227 to 229 °C (dec.)
CNCC(=O)NCCn1c(-c2ccccc2)nc2c(C(F)(F)F)nc3ccccc3c21 [Example 127] = 208 to 209 °C
FC(F)(F)c1nc2ccccc2c2c1nc(C1CCCCC1)n2CCC1CCNCC1 (as salt: trifluoroacetate) [Example 71] = 182.5 to 184 °C
FC(F)(F)c1nc2ccccc2c2c1nc(-c1ccc[nH]1)n2CCC1CNCCO1 (stereo not shown) (as salt: trifluoroacetate) [Example 102] = 254 to 258 °C (dec.)

Task item: Look up melting point of FC(F)(F)c1nc2cc(Cl)ccc2c2c1nc(C1CCCCC1)n2CCC1CCNCC1 (as salt: trifluoroacetate) [Example 79] and report it.
Reply: 236 to 237 °C (dec.)

Task item: Look up melting point of Fc1ccc2c(c1)nc(C(F)(F)F)c1nc(-c3nccs3)n(CCC3CCNCC3)c12 (as salt: trifluoroacetate) [Example 82] and report it.
Reply: 236 to 237 °C (dec.)

Task item: Look up melting point of FC(F)(F)c1nc2ccccc2c2c1nc(-c1nccs1)n2CCC1CCNCC1 [Example 70] and report it.
Reply: 199 to 200 °C

Task item: Look up melting point of FC(F)(F)c1nc2cc(Cl)ccc2c2c1nc(-c1cccs1)n2CCC1CCNCC1 (as salt: trifluoroacetate) (hydrate or solvate) [Example 77] and report it.
Reply: 217 to 219 °C (dec.)

Task item: Look up melting point of Cc1cccc2c1nc(C(F)(F)F)c1nc(-c3ccco3)n(CCC3CCNCC3)c12 (as salt: trifluoroacetate) (hydrate or solvate) and report it.
Reply: 232 to 234 °C (dec.)

Task item: Look up melting point of Fc1ccc2c(c1)nc(C(F)(F)F)c1nc(-c3ccc[nH]3)n(CCC3CCNCC3)c12 (as salt: trifluoroacetate) (hydrate or solvate) [Example 81] and report it.
Reply: 252 to 254 °C (dec.)

Task item: Look up melting point of CN(C)CCn1c(-c2ccc[nH]2)nc2c(C(F)(F)F)nc3ccccc3c21 (as salt: fumarate) [Example 51] and report it.
Reply: 228 to 230 °C (dec.)

Task item: Look up melting point of Cc1ccc2c(c1)nc(C(F)(F)F)c1nc(-c3ccc[nH]3)n(CCC3CCNCC3)c12 (as salt: trifluoroacetate) (hydrate or solvate) [Example 87] and report it.
Reply: 280 to 284 °C (dec.)

* * *

Structures can show the parent of a compound that is named as a salt.
metric: melting point

Study these solved cases before continuing.
c1ccc(-c2nc3c(C4CC4)nc4ccccc4c3n2CCC2CCNCC2)cc1 (as salt: fumarate) (hydrate or solvate) = 142.5 to 147 °C (dec.)
FC(F)(F)c1nc2ccccc2c2c1nc(-c1ccccc1)n2CCC1CCCNC1 (centres unmarked) (as salt: trifluoroacetate) = 229.5 to 231.5 °C (dec.)
Fc1ccc2c(c1)nc(C(F)(F)F)c1nc(-c3cccs3)n(CCC3CCNCC3)c12 (as salt: trifluoroacetate) (hydrate or solvate) = 234 to 235 °C (dec.)
Cc1ccc2c(c1)nc(C(F)(F)F)c1nc(-c3ncc[nH]3)n(CCC3CCNCC3)c12 (as salt: trifluoroacetate) (hydrate or solvate) = 303 to 305 °C (dec.)

Task item: Look up melting point of c1ccc(-c2nc3ccccc3c3c2nc(-c2ccc[nH]2)n3CCC2CCNCC2)cc1 (hydrate or solvate) and report it.
Reply: 268 to 270 °C

Task item: Look up melting point of Cc1ccc2c(c1)nc(C(F)(F)F)c1nc(-c3ccccc3O)n(CCC3CCNCC3)c12 (as salt: trifluoroacetate) and report it.
Reply: 161 to 162 °C
